Sourced from PubChem BioAssay AID1159580

- Assay text: chemical genetic growth profiling, strain panel (AID 1159580);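 further: tested at 20 µM; growth read once vehicle control cultures reached saturation at 30 °C; 1 = growth at the plate median or of vehicle wells; lower values mean less growth of the strain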
- Measurement parameters: S. cerevisiae deletion strains, growth OD, locus YOL012C, strain htz1
In all, about 5,500 compounds went through this assay and about 2,000 (36%) were called active. About 18% were inconclusive and are not listed. Some of the results follow.
Entries and their normalized growth
Write no unit; give the number alone.

{"Compound": "O=c1cccc2ccc(O)c(O)c2c1O", "normalized growth": 0.205}

Okay, now this compound:
// normalized growth lookup, key: COC(=O)c1cc(=O)c(O)c2c(O)c(O)ccc2c1
0.795

====

- Assay text: chemical genetic growth profiling, strain panel (AID 1159580);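 further: tested at 20 µM; growth read once vehicle control cultures reached saturation at 30 °C; 1 = growth at the plate median or of vehicle wells; lower values mean less growth of the strain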
- Measurement parameters: S. cerevisiae deletion strains, growth OD, locus YLR330W, strain CHS5
In all, about 5,500 compounds went through this assay and about 2,000 (36%) were called active. Inconclusive results (about 18%) are left out. Cut-off read from the data, not from the text of the source: active = normalized growth mostly below about 0.91 (no sharp cut-off); inconclusive = no clear call, values can overlap the other calls; inactive = mostly above about 0.92. The list shows a part of the results.
Field 'call' accepts y for active, n for inactive

{"Molecule": "c1ccc2c(c1)CCCC2C1=NCCN1 (stereo not given)", "Class": "n"}

What call does the record list for O=C(Oc1cc(OC(=O)c2ccccc2)c2c(c1)O[C@H](c1ccc(OC(=O)c3ccccc3)c(OC(=O)c3ccccc3)c1)[C@@H](OC(=O)c1ccccc1)C2)c1ccccc1 ?
n

What call does the record list for COc1ccc(C(CN(C)C)C2(O)CCCCC2)cc1 (stereo not given) ?
n

What call does the record list for NCCC(O)C(=O)NC1CC(N)C(OC2OC(CN)C(O)C(O)C2N)C(OC2OC(CO)C(O)C2O)C1O (stereo not given) ?
n

What call does the record list for Cc1ccccc1C(OCCN(C)C)c1ccccc1 (stereo not given) ?
n

What call does the record list for CCN(CC)C(=O)N1CCN(C)CC1 ?
n

What call does the record list for CN1C2CCC1CC(OC(c1ccccc1)c1ccccc1)C2 (stereo not given) ?
y

What call does the record list for COc1cc(OC)c2c(c1)O[C@H](c1cc(OC)c(OC)c(OC)c1)[C@H](OC(=O)c1cc(OC)c(OC)c(OC)c1)C2 ?
n

What call does the record list for O=C(Oc1cc(O)cc2c1C[C@@H](OC(=O)c1cc(O)c(O)c(O)c1)[C@@H](c1cc(O)c(O)c(O)c1)O2)c1cc(O)c(O)c(O)c1 ?
y

What call does the record list for CN(C)CCOC(c1ccc(Cl)cc1)c1ccccn1 (stereo not given) ?
n

What call does the record list for O=C1NCC2(CCN(CCc3ccccc3)CC2)O1 ?
n

What call does the record list for CCN1CCCC(OC(=O)C(c2ccccc2)c2ccccc2)C1 (stereo not given) ?
n

====

- Assay text: chemical genetic growth profiling, strain panel (AID 1159580);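 further: tested at 20 µM; growth read once vehicle control cultures reached saturation at 30 °C; 1 = growth at the plate median or of vehicle wells; lower values mean less growth of the strain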
- Measurement parameters: S. cerevisiae deletion strains, growth OD, locus YLR258W, strain gsy2, stronger effect = lower value
Hit rate of the full screen: of about 5,500 compounds, about 2,000 (36%) were called active. About 18% were inconclusive and are not listed. The list shows a part of the results.
One threshold, 1, splits the recorded normalized growth values: lower ones are met, equal or higher ones are not met.

# count of solved cases: 2
{"Compound": "CC[C@@H](C(=O)C(C)[C@@H](O)[C@H](C)CCc1ccc(C)c(O)c1C(=O)O)C1OC(CC)(C2CC[C@](O)(CC)[C@H](C)O2)C[C@@H]1C (some centres undefined)", "Class": "not met"}
{"Compound": "C=C[C@@](C)(O)CCC1C(=C)C[C@H](OC(C)=O)C2C(C)(C)CCCC12C (some centres undefined)", "Class": "not met"}

API: the following record is the query input.
Strictly below 1: is that where normalized growth of O=c1cccc2ccc(O)c(O)c2c1O sits?
met
